src = ChEMBL document CHEMBL1154940

experiment: Anticancer activity against human MDA-MB-436 cells assessed as cell survival after 72 hrs by MTT assay; assay type: functional, cell-based; settings: MDA-MB-436, 72 h
result_type: IC50 (µM)
Give bare numbers, in µM.

Please look at this compound and report its IC50: C[C@]12CC[C@@H]3c4ccc(O)cc4CC[C@H]3[C@@H]1C[C@@](CO)(CCCCNC(=O)CCCc1ccc(N(CCCl)CCCl)cc1)[C@@H]2O
40
